assayed-system: human glucagon receptor (human, UniProt P47871 26-477)
Sequence (P47871 26-477): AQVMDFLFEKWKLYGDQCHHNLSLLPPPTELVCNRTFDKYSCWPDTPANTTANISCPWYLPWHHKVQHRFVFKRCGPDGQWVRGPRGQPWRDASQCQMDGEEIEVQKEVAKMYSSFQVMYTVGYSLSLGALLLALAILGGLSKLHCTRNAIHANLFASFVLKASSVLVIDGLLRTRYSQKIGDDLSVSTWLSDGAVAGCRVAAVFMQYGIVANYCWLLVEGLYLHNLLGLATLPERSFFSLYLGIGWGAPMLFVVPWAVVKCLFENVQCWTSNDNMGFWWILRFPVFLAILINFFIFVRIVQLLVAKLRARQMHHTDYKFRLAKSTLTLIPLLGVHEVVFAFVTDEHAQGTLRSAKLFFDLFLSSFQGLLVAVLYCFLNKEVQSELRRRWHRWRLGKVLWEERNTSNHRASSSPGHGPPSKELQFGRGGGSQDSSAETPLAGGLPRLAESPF
test-details: cell-based or functional assay
Bridge positions count the residues as written; N and C are the ends. Square brackets hold non-standard residues; d marks the D form. Primed or numbered codes have the meaning given here. Side chains are listed from the residue outwards. Ends that are not written are not given here. PEG 20 kDa″ = 20 kDa polyethylene glycol (PEG); PEG 20 kDa = 20 kDa polyethylene glycol; PhLac = O=C(O)[C@@H](O)Cc1ccccc1; Mpa = O=C(O)CCS
endpoint-label: Glucagon antagonism IC50 (inhibit 0.2-0.8 nM glucagon)

// below: answered binders
1. [PhLac]TSDYSKYLDERRAKDFVK([Mpa-PEG 20 kDa″])WLMDT-NH2 (lactam 11-15) [[PLA6, E16K20(Lactam), K24(COCH2CH2S-20 kDa)] G(6-29)] : 300 to 400 nM
2. [PhLac]TSDYSKYLDERRAKDFVK([3‑aminoprop‑1‑ynyl‑benzoic acid-Mpa-PEG 20 kDa])WLMDT-NH2 (lactam 11-15) [[PLA6,E16K20(Lactam), K24(rigid-S-20 kDa)]G(6-29)] : 393 to 620 nM

We next turn to a different binder, shown below.
Documented Glucagon antagonism IC50 (inhibit 0.2-0.8 nM glucagon) of [PhLac]TSDYSKYLDERRAKDFVQWLMDTGPSSGAPPPSC(PEG 20 kDa″)-NH2 (lactam 11-15) [[PLA6, E16K20(Lactam), D28,CEX-C40(20 kDa)]G(6-40)] : 350 to 500 nM
